For each of the compounds below, state its EC50.
Test system: HT-29 cells
Conditions: read-out: HT29 (EC50 Ave) SA; HT29, SA (soft agar)

Compound	Experimental Endpoint	Result
CC[C@]1(O)C[C@@H]2CN(CCc3c([nH]c4ccccc34)[C@@](C(=O)OC)(c3cc4c(cc3OC)N(C)[C@H]3[C@@](O)(C(=O)NCCCCCCCCCCCCNC(=O)OC(C)(C)C)[C@H](O)[C@]5(CC)C=CCN6CC[C@]43[C@@H]65)C2)C1	EC50	< 20 nM

Turning now to a further record.
Which EC50 is reported with HT-29 cells for this entry: CC[C@]1(O)C[C@@H]2CN(CCc3c([nH]c4ccccc34)[C@@](C(=O)OC)(c3cc4c(cc3OC)N(C)[C@H]3[C@@](O)(C(=O)NN)[C@H](O)[C@]5(CC)C=CCN6CC[C@]43[C@@H]65)C2)C1 [Desacetylvinblastine monohydrazine] ?
< 20 nM

----------
Assay: Serum stability in RPMI1640 medium containing 10% fetal bovine serum
Format: in vitro ADME
Conditions: bovine, 24 hr, read-out: Relative Percent Remaining at 24 hr
Experimental: The stability of conjugates was measured in RPMI1640 cell culture medium containing 10% fetal bovine serum. The serum-containing medium was pre-warmed at 37° C. for 3 min prior to addition of test articles. Test articles, prepared in DMSO as 5 mM stocks, were added to the cell culture media to a final concentration of 10 μM. […] The elimination half-lives associated with the disappearance of test articles were determined to compare their relative stability. […]
Experimental Endpoint: remaining at 24 h, 10 μM (%)
Answers are plain numbers, in %.

Previously resolved entries follow.
Compound	remaining at 24 h, 10 μM / %
CC[C@]1(O)C[C@@H]2CN(CCc3c([nH]c4ccccc34)[C@@](C(=O)OC)(c3cc4c(cc3OC)N(C)[C@H]3[C@@](O)(C(=O)OC)[C@H](OC(C)=O)[C@]5(CC)C=CCN6CC[C@]43[C@@H]65)C2)C1 [Vinblastine, reference compound]	87
CC(=O)O[C@H]1C(=O)[C@@]2(C)[C@H]([C@H](OC(=O)c3ccccc3)[C@]3(O)C[C@H](OC(=O)[C@H](O)[C@@H](NC(=O)c4ccccc4)c4ccccc4)C(C)=C1C3(C)C)[C@]1(OC(C)=O)CO[C@@H]1C[C@@H]2O [Paclitaxel, reference compound]	28

Fill in remaining at 24 h, 10 μM for each of the 2 compounds listed.
1. CC[C@H](C)[C@H](NC(=O)[C@H](Cc1ccc(O)cc1)NC(=O)OCc1ccccc1)C(=O)N[C@@H](Cc1ccc(O)cc1)C(=O)NCC(=O)N[C@@H](CO)C(=O)N[C@@H](Cc1ccccc1)C(=O)N[C@@H](CCCCN)C(=O)NCCOCCOCCOCCNC(=O)[C@@]1(O)[C@H](O)[C@]2(CC)C=CCN3CC[C@@]4(c5cc([C@@]6(C(=O)OC)C[C@@H]7CN(CCc8c6[nH]c6ccccc86)C[C@](O)(CC)C7)c(OC)cc5N(C)[C@@H]14)[C@@H]32
2. CC[C@H](C)[C@H](NC(=O)[C@H](Cc1ccc(O)cc1)NC(=O)[C@H](CCC(=O)O)NC(C)=O)C(=O)N[C@@H](Cc1ccc(O)cc1)C(=O)NCC(=O)N[C@@H](CO)C(=O)N[C@@H](Cc1ccccc1)C(=O)N[C@@H](CCCCN)C(=O)NCCCOCCOCCOCCCNC(=O)O[C@H]1C(=O)[C@@]2(C)[C@H]([C@H](OC(=O)c3ccccc3)[C@]3(O)C[C@H](OC(=O)[C@H](O)[C@@H](NC(=O)c4ccccc4)c4ccccc4)C(C)=C1C3(C)C)[C@]1(OC(C)=O)CO[C@@H]1C[C@@H]2O

1. 100
2. 69
